Test system: Saccharomyces cerevisiae;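 also: PSI is a weighted mean of sequencing reads over stability bins, variants kept only with over 10 reads, mCherry proximal and sfGFP distal, peptide attached via GGGS linker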
protocol_summary: protein stability index of tFT-peptide fusion (C-terminal peptide) (PSI (0-1 scale)); higher = more stable (slower turnover)
condition_label: genetic background: wild type; temperature: 30 C

| sequence_data | measured_target | protein stability index |
| --- | --- | --- |
| LKIDTCSQQEEN | Saccharomyces cerevisiae | 0.675 |
| GIVSGEGAVGVG | Saccharomyces cerevisiae | 0.509 |
| LGVDFCRGVVVE | Saccharomyces cerevisiae | 0.654 |
| SCFRTLPGRWPF | Saccharomyces cerevisiae | 0.793 |
| PPPASPLVPPSP | Saccharomyces cerevisiae | 0.712 |
| PGRGRQGSGIGM | Saccharomyces cerevisiae | 0.671 |
| GCDELGGRRFGR | Saccharomyces cerevisiae | 0.721 |
| CLMGTIETRLRC | Saccharomyces cerevisiae | 0.637 |
| PSGPKAPPHAGR | Saccharomyces cerevisiae | 0.676 |
| LLALQCSLFTPH | Saccharomyces cerevisiae | 0.678 |
| DWGRRGGALAVI | Saccharomyces cerevisiae | 0.641 |
| GGVGWWVGVVWG | Saccharomyces cerevisiae | 0.624 |
| GSLLSEERGRYW | Saccharomyces cerevisiae | 0.75 |
| KIHRNGNKKEKD | Saccharomyces cerevisiae | 0.7 |
| WTPGTPVFSKGI | Saccharomyces cerevisiae | 0.714 |
| HWRRGGRRGGDR | Saccharomyces cerevisiae | 0.703 |
| IVLHLAASPTPP | Saccharomyces cerevisiae | 0.65 |
| LLTSFFTLFCNT | Saccharomyces cerevisiae | 0.657 |
| HPPSSLLSPPSP | Saccharomyces cerevisiae | 0.702 |
| KPKKKRTKQRKR | Saccharomyces cerevisiae | 0.705 |
| YCLERVPAEYDG | Saccharomyces cerevisiae | 0.67 |
| QGLSHVVTCLFG | Saccharomyces cerevisiae | 0.721 |
| LVILWDVLSVVP | Saccharomyces cerevisiae | 0.612 |
| LFDGPFPHLFPT | Saccharomyces cerevisiae | 0.718 |
| PHRLPPLPNPLH | Saccharomyces cerevisiae | 0.693 |
| SALFLVPRASWL | Saccharomyces cerevisiae | 0.659 |
| WPVRNRIQPPPR | Saccharomyces cerevisiae | 0.705 |
| IFVCRCFGFFGG | Saccharomyces cerevisiae | 0.681 |
| PLDLPPLPLPPP | Saccharomyces cerevisiae | 0.763 |
| VCGRTHRVLPTY | Saccharomyces cerevisiae | 0.641 |
| GRKGGEGERERT | Saccharomyces cerevisiae | 0.672 |
| RNSVGGHENWNQ | Saccharomyces cerevisiae | 0.703 |
| PAAPFFPSLRLL | Saccharomyces cerevisiae | 0.711 |
| RTMLSNRIKSFI | Saccharomyces cerevisiae | 0.415 |
| KRKEEKKPLINE | Saccharomyces cerevisiae | 0.734 |
| PPPLACLPLSLR | Saccharomyces cerevisiae | 0.71 |
| PPAPPAPPPSVG | Saccharomyces cerevisiae | 0.708 |
| ISIRKNSNQETM | Saccharomyces cerevisiae | 0.692 |
| RPPHSNPPRLVI | Saccharomyces cerevisiae | 0.711 |
| VVGSAGGGGFVL | Saccharomyces cerevisiae | 0.672 |
| SLWLRLAIPSRY | Saccharomyces cerevisiae | 0.689 |
